Data origin: BigSolDB 2.1

- measurement-context: in methyl acetate, 291.2 K
measured-attribute: solubility (mole fraction)

**Query** What value of solubility (mole fraction) has been reported for the following molecule? CC[C@H](C)C(=O)O[C@H]1C[C@@H](C)C=C2C=C[C@H](C)[C@H](CC[C@@H]3C[C@@H](O)CC(=O)O3)[C@H]21
**Result** 0.00376
